- Assay Info: Metabolic stability in mouse plasma
- Applied Conditions: CES1–/–, mouse, plasma
Endpoint: remaining at 1 h, 10 μM (%)
Value expressed in %; do not type the unit.

Exercise: Give recorded remaining at 1 h, 10 μM. CN(C)CC(=O)N[C@H](C(=O)N[C@@H](CCC(=O)C=[N+]=[N-])C(=O)OC(C)(C)C)c1ccccc1 [Prodrug P13]
Solution: 92

====

- Assay Info: Metabolic stability in mouse intestinal homogenate (GIh)
- Applied Conditions: CES1–/–, mouse, intestinal homogenate
Endpoint: remaining at 1 h, 10 µM (%)
Just the number in %, nothing appended.

{"columns": ["Compound", "Endpoint", "Experimental Value"],
 "data": [
  ["CN(C)CC(=O)N[C@H](Cc1ccccc1)C(=O)N[C@@H](CCC(=O)C=[N+]=[N-])C(=O)OC(C)(C)C [Prodrug P12]", "remaining at 1 h, 10 µM", 90]
]}

Exercise: Quote remaining at 1 h, 10 µM reported for CC(=O)N[C@@H](Cc1c[nH]c2ccccc12)C(=O)N[C@@H](CCC(=O)C=[N+]=[N-])C(=O)OC(C)C [DRP-104, reference compound] please.
Solution: 0

Exercise: Give me measured remaining at 1 h, 10 µM, please, for this compound: CC(=O)N[C@@H](Cc1c[nH]c2ccccc12)C(=O)N[C@@H](CCC(=O)C=[N+]=[N-])C(=O)OCC1CC1 [Prodrug P4]
Solution: 1

====

- Assay Info: Metabolic stability in mouse plasma
- Applied Conditions: CES1–/–, mouse, plasma
Endpoint: remaining at 1 h, 10 µM (%)
Write the number in % without appending the unit.

{"columns": ["Compound", "remaining at 1 h, 10 µM [%]"],
 "data": [
  ["CNC(=O)[C@H](CCC(=O)C=[N+]=[N-])NC(=O)[C@H](Cc1c[nH]c2ccccc12)NC(C)=O [Prodrug P6]", 102],
  ["CC(=O)N[C@@H](Cc1c[nH]c2ccccc12)C(=O)N[C@@H](CCC(=O)C=[N+]=[N-])C(=O)OC(C)C [DRP-104, reference compound]", 94],
  ["CN(C)CC(=O)N[C@@H](Cc1ccc(C(F)(F)F)cc1)C(=O)N[C@@H](CCC(=O)C=[N+]=[N-])C(=O)OC(C)(C)C [Prodrug P17]", 70],
  ["CN(C)CC(=O)N[C@@H](Cc1c[nH]c2ccccc12)C(=O)N[C@@H](CCC(=O)C=[N+]=[N-])C(=O)OC(C)(C)C [Prodrug P9]", 102],
  ["CC(=O)N[C@@H](Cc1c[nH]c2ccccc12)C(=O)N[C@@H](CCC(=O)C=[N+]=[N-])C(=O)OC(C)(C)C [Prodrug P5]", 92]
]}

Exercise: Kindly indicate its recorded remaining at 1 h, 10 µM. Item: CC(C)C[C@H](NC(=O)CN(C)C)C(=O)N[C@@H](CCC(=O)C=[N+]=[N-])C(=O)OC(C)(C)C [Prodrug P20]
Solution: 98

Exercise: State, in one line, measured remaining at 1 h, 10 µM of CN(C)CC(=O)N[C@@H](Cc1cn(C)c2ccccc12)C(=O)N[C@@H](CCC(=O)C=[N+]=[N-])C(=O)OC(C)(C)C [Prodrug P10]
Solution: 97

Exercise: Consider the compound CN(C)CC(=O)N[C@@H](CCc1ccccc1)C(=O)N[C@@H](CCC(=O)C=[N+]=[N-])C(=O)OC(C)(C)C [Prodrug P14] . State its measured remaining at 1 h, 10 µM.
Solution: 102

====

- Assay Info: Metabolic stability in mouse intestinal homogenate (GIh)
- Applied Conditions: supplementary CSV; unit not given; matches Table 1 % remaining at 1 h; in %
Endpoint: Intestinal homogenate
Please state the value as a number alone, without comment.

{"columns": ["Compound", "Intestinal homogenate"],
 "data": [
  ["CN(C)CC(=O)N[C@@H](Cc1cn(C)c2ccccc12)C(=O)N[C@@H](CCC(=O)C=[N+]=[N-])C(=O)OC(C)(C)C [Prodrug P10]", 87],
  ["CN(C)CC(=O)N[C@@H](Cc1c[nH]c2ccccc12)C(=O)N[C@@H](CCC(=O)C=[N+]=[N-])C(=O)OC(C)(C)C [Prodrug P9]", 66],
  ["CCOC(=O)[C@H](CCC(=O)C=[N+]=[N-])NC(=O)[C@H](Cc1c[nH]c2ccccc12)NC(C)=O [Prodrug P2]", 2],
  ["CN(C)CC(=O)N[C@@H](CC(C)(C)C)C(=O)N[C@@H](CCC(=O)C=[N+]=[N-])C(=O)OC(C)(C)C [Prodrug P21]", 68],
  ["COC(=O)[C@H](CCC(=O)C=[N+]=[N-])NC(=O)[C@H](Cc1c[nH]c2ccccc12)NC(C)=O [Prodrug P1]", 4],
  ["CN(C)CC(=O)NCC(=O)N[C@@H](CCC(=O)C=[N+]=[N-])C(=O)OC(C)(C)C [Prodrug P18]", 97],
  ["CC(=O)N[C@@H](Cc1c[nH]c2ccccc12)C(=O)N[C@@H](CCC(=O)C=[N+]=[N-])C(=O)OCC1CC1 [Prodrug P4]", 1],
  ["CN(C)CC(=O)N[C@@H](Cc1ccc(C(F)(F)F)cc1)C(=O)N[C@@H](CCC(=O)C=[N+]=[N-])C(=O)OC(C)(C)C [Prodrug P17]", 76],
  ["CN(C)CC(=O)N[C@@H](Cc1cccc(F)c1)C(=O)N[C@@H](CCC(=O)C=[N+]=[N-])C(=O)OC(C)(C)C [Prodrug P16]", 69],
  ["CN(C)CC(=O)N[C@@H](Cc1ccccc1)C(=O)N[C@@H](CCC(=O)C=[N+]=[N-])C(=O)OC(C)(C)C [Prodrug P11]", 78]
]}

Exercise: # return recorded Intestinal homogenate for input CNC(=O)[C@H](CCC(=O)C=[N+]=[N-])NC(=O)[C@H](Cc1c[nH]c2ccccc12)NC(C)=O [Prodrug P6]
Solution: 77

Exercise: Kindly indicate its recorded Intestinal homogenate. Item: CC(=O)N[C@@H](Cc1c[nH]c2ccccc12)C(=O)N[C@@H](CCC(=O)C=[N+]=[N-])C(=O)OC(C)(C)C [Prodrug P5]
Solution: 99

Exercise: Please look at this compound and report its Intestinal homogenate: CC(C)(C)OC(=O)[C@H](CCC(=O)C=[N+]=[N-])NC(=O)[C@H](Cc1c[nH]c2ccccc12)NC(=O)CN1CCOCC1 [Prodrug P7]
Solution: 83

Exercise: Determine its reported Intestinal homogenate: CN(C)CC(=O)N[C@H](Cc1ccccc1)C(=O)N[C@@H](CCC(=O)C=[N+]=[N-])C(=O)OC(C)(C)C [Prodrug P12]
Solution: 90

====

- Assay Info: Metabolic stability in mouse plasma
- Applied Conditions: CES1–/–, mouse, plasma
Endpoint: remaining at 1 h, 10 µM
Your reply should be a number followed by the unit it is expressed in.

Recorded remaining at 1 h, 10 µM, per entry:
{"columns": ["Compound", "Experimental Value"],
 "data": [
  ["C[C@H](NC(=O)CN(C)C)C(=O)N[C@@H](CCC(=O)C=[N+]=[N-])C(=O)OC(C)(C)C [Prodrug P19]", "99%"],
  ["CN(C)CC(=O)NCC(=O)N[C@@H](CCC(=O)C=[N+]=[N-])C(=O)OC(C)(C)C [Prodrug P18]", "108%"]
]}

Exercise: Hello, please tell me recorded remaining at 1 h, 10 µM for this one: CN(C)CC(=O)N[C@@H](Cc1ccc(F)cc1)C(=O)N[C@@H](CCC(=O)C=[N+]=[N-])C(=O)OC(C)(C)C [Prodrug P15]
Solution: 108%

====

- Assay Info: Metabolic stability in mouse intestinal homogenate (GIh)
- Applied Conditions: CES1–/–, mouse, intestinal homogenate
Endpoint: remaining at 1 h, 10 µM (%)
# output: bare number, implied unit %

// worked examples, remaining at 1 h, 10 µM included
{"columns": ["Molecule", "remaining at 1 h, 10 µM, %"],
 "data": [
  ["C[C@H](NC(=O)CN(C)C)C(=O)N[C@@H](CCC(=O)C=[N+]=[N-])C(=O)OC(C)(C)C [Prodrug P19]", 86],
  ["CN(C)CC(=O)N[C@@H](CC(C)(C)C)C(=O)N[C@@H](CCC(=O)C=[N+]=[N-])C(=O)OC(C)(C)C [Prodrug P21]", 68],
  ["CN(C)CC(=O)N[C@@H](Cc1cn(C)c2ccccc12)C(=O)N[C@@H](CCC(=O)C=[N+]=[N-])C(=O)OC(C)(C)C [Prodrug P10]", 87],
  ["CN(C)CC(=O)N[C@@H](Cc1cccc(F)c1)C(=O)N[C@@H](CCC(=O)C=[N+]=[N-])C(=O)OC(C)(C)C [Prodrug P16]", 69],
  ["CC(C)(C)OC(=O)[C@H](CCC(=O)C=[N+]=[N-])NC(=O)[C@H](Cc1c[nH]c2ccccc12)NC(=O)CN1CCOCC1 [Prodrug P7]", 83],
  ["CN(C)CC(=O)N[C@@H](Cc1ccc(C(F)(F)F)cc1)C(=O)N[C@@H](CCC(=O)C=[N+]=[N-])C(=O)OC(C)(C)C [Prodrug P17]", 76],
  ["CN(C)CC(=O)NCC(=O)N[C@@H](CCC(=O)C=[N+]=[N-])C(=O)OC(C)(C)C [Prodrug P18]", 97],
  ["CC(C)C[C@H](NC(=O)CN(C)C)C(=O)N[C@@H](CCC(=O)C=[N+]=[N-])C(=O)OC(C)(C)C [Prodrug P20]", 79]
]}

Exercise: Supply recorded remaining at 1 h, 10 µM for CNC(=O)[C@H](CCC(=O)C=[N+]=[N-])NC(=O)[C@H](Cc1c[nH]c2ccccc12)NC(C)=O [Prodrug P6] here.
Solution: 77

Exercise: Look up and report measured remaining at 1 h, 10 µM for this entry: CN(C)CC(=O)N[C@@H](CCc1ccccc1)C(=O)N[C@@H](CCC(=O)C=[N+]=[N-])C(=O)OC(C)(C)C [Prodrug P14]
Solution: 97
